Values compiled from patent US20190106460A1.

target_under_test: T1, βTrCP (tag cleaved and complexed with Skp1) (UniProt Q9Y297 175-605; P63208 1-163)
T1 construct: Protein of the FP assay (0.035 µM); also called Beta Transducin repeat-containing protein; βTrCP/Skp1
test_summary: FP competition vs fluorescein-IκB peptide
Starred links: 1 amine or outer side, 2 acyl side, 3 side chain; linkers in the order of their positions; H or OH if unused. Non-standard residues stand in square brackets, D forms with d. Tyr(Me) = O-methyl-L-tyrosine, COc1ccc(C[C@H](N[*:1])C(=O)[*:2])cc1; 1Nal = N[C@@H](Cc1cccc2ccccc12)C(=O)O; Suc = O=C(CCC(=O)[*:2])[*:1]; βE = a beta form of Glu
Assignment: determine reported pIC50 for the given binders.
pIC50 is defined as minus the log10 of a concentration measured in mol/L.

Look at this binder and give its reported pIC50. Suc-EG[1Nal][Tyr(Me)]E-NH2 [Suc-EG-1Nal-Y(Me)-E-NH2]
5.27

Return reported pIC50; argument: Suc-EGFF-NH2 (SMILES NC(=O)[C@H](Cc1ccccc1)NC(=O)[C@H](Cc1ccccc1)NC(=O)CNC(=O)[C@H](CCC(=O)O)NC(=O)CCC(=O)O) [Suc-EGFF-NH2]
4.34

pIC50 for Suc-[βE]GYFE-NH2 (not fully specified; printed as Suc-βE-GYFE-NH2) [Suc-βE-GYFE-NH2] ?
4.52
